study target: Translocator protein (Rattus norvegicus, UniProt P16257)
Sequence (P16257 whole entry, looked up): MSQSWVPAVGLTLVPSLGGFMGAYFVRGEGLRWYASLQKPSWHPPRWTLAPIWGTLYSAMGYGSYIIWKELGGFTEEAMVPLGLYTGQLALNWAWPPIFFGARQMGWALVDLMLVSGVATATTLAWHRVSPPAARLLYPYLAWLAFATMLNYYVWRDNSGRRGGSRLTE
assay name: Displacement of [3H]-PK 11195 from rat peripheral (mitochondrial) benzodiazepine receptor
pIC50: −log10 of the molar value.
quantity: pIC50

Examples from the recorded data:
>>> print(df.to_string())
                                   compound                              study_target  result
0  COc1ccc(C2=C(OC(=O)c3cc(OC)c(OC)c(OC)c3)c3cccn3-c3cc(Cl)ccc3S2)cc1  Translocator protein (Rattus norvegicus, UniProt P16257)    4.00
1  O=C1c2cccn2-c2ccccc2S(=O)(=O)C1c1ccccc1 (stereo not given)  Translocator protein (Rattus norvegicus, UniProt P16257)    4.00
2  CN(C)C(=O)OC1=C(c2ccccc2)Sc2ccccc2-n2cccc21  Translocator protein (Rattus norvegicus, UniProt P16257)    8.04

(A) CC(=O)OC1=C(c2ccccc2)Sc2c(Cl)cccc2-n2cccc21
(B) COc1ccc(C2=C(OC(=O)c3cc(OC)c(OC)c(OC)c3)c3cccn3-c3ccccc3S2)cc1
Task: Which gives the smaller pIC50 number: A or B ? // return label of chosen record
Result: B
(B: 4.00, A: 8.12)

Recorded values, source ChEMBL document CHEMBL1127419.
